system-tested: Nuclear receptor subfamily 1 group I member 2 (Homo sapiens) (UniProt O75469)
Sequence (O75469 whole entry, looked up): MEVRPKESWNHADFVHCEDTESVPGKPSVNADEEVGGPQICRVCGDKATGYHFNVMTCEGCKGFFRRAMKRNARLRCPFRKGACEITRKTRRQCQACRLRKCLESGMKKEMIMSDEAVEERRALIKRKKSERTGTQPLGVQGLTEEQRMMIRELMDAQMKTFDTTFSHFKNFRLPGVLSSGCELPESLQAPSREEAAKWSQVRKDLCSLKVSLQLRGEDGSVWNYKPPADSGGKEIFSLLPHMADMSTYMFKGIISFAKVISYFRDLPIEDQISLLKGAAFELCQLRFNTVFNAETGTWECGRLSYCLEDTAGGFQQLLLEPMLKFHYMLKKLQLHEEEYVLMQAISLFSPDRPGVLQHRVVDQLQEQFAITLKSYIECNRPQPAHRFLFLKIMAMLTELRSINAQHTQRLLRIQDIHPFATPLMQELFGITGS
method-summary: Human pregnane X receptor (PXR) small molecule agonists, qHTS assay (AID 1346982); also: nearly all actives have a fitted effect of over 35% in size
stated-conditions: PXR-Luc HepG2, CYP3A4 luciferase reporter, 24 h; series mostly up to 92.4 µM
Results filed as inconclusive are left out. Activity calls are given as the source filed them. Calls follow the shape of the dose curve; as a rule, active = well fitted activation curve with a large enough effect in the repeat runs; inconclusive = weak or mixed curves; inactive = no such curve, though single readings can be large or run the other way.
Your reply should match one of these outcome classes. active, inactive

>>> label("Nc1cc(C(F)(F)F)ccc1S")
"active"
>>> label("Cc1ccc2oc(CN(Cc3ccccc3)C(=O)Nc3c(F)cc(F)cc3F)c(-c3ccc(Cl)cc3)c2c1")
"active"
>>> label("Oc1ccc(N=Nc2ccccc2)cc1")
"active"
>>> label("Clc1ccc2nsnc2c1NC1=NCCN1")
"inactive"

Q: For Fc1ccc([C@@H]2CCNC[C@H]2COc2ccc3c(c2)OCO3)cc1 , which call appears in the assay record?
Ans: inactive

Q: Which outcome was assigned to CCCCCCOC(=O)c1ccc(O)cc1 in this test?
Ans: inactive

Q: Which outcome did this test record for the molecule CC1=C(C(=O)OC(C)C)C(c2cccc([N+](=O)[O-])c2)C(C(=O)OC2CN(C(c3ccccc3)c3ccccc3)C2)=C(N)N1 (configuration not stated) ?
Ans: active

Q: Hi, do you know how [Cl][Bi]([Cl])([c]1ccccc1)([c]1ccccc1)[c]1ccccc1 came out in this test?
Ans: active

###

system-tested: Luciferin 4-monooxygenase (Photinus pyralis) (UniProt P08659)
Sequence (P08659 whole entry, looked up): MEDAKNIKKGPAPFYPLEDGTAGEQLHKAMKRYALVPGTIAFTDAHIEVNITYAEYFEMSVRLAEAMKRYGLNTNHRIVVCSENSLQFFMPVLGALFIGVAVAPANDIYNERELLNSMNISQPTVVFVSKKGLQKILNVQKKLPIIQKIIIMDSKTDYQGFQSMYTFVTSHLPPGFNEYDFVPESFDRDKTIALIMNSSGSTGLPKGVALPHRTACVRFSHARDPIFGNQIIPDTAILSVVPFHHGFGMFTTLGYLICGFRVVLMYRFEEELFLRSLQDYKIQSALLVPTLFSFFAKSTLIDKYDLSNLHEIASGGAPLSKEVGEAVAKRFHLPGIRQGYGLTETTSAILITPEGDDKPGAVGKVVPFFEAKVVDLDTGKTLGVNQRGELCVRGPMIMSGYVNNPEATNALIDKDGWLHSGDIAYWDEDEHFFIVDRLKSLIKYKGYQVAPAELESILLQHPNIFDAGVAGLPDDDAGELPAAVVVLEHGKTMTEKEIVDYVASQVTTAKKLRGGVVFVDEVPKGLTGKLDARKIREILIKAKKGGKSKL
method-summary: qHTS assay to identify small molecule inhibitors of firefly luciferase (AID 1224835); also: nearly all actives have a fitted effect of over 25% in size
stated-conditions: purified P. pyralis luciferase, luminescence inhibition; series mostly up to 115 µM
Results filed as inconclusive are left out. Calls of active or inactive are those of the source. The call rests on the fitted dose curve; in most records, active means well fitted inhibition curve with a large enough effect in the repeat runs; inconclusive means weak or mixed curves; inactive means flat fitted curve, though single readings scatter.
Could you please pick one outcome from this set? Y for active, N for inactive

>>> label("CN(C)CCCOC1(Cc2ccccc2)CCCCCC1")
"N"
>>> label("CCN(CC)CCCC(C)Nc1c2ccc(Cl)cc2nc2ccc(OC)cc12 (stereo unspecified)")
"N"
>>> label("O=C(O)c1ccc(Cl)c(Cl)c1")
"N"

Q: What classification did Cc1[nH]cnc1C[C@H]1CCc2c(C)c3ccccc3n2C1=O end up with in this test?
Ans: N

Q: Tell me the assay call for Cc1cc2c(cc1C(F)(F)F)N(C(=O)Nc1ccc(Oc3cccnc3C)nc1)CC2 please.
Ans: N

###

method-summary: qHTS RealTime-Glo MT Cell Viability Assay in HepG2 cells - 8 hour (AID 1224873); also: nearly all actives have a fitted effect of over 55% in size; also: potency is read from the fitted curve at half-maximal effect
stated-conditions: RealTime-Glo luminescence; series mostly up to 76.8 µM
Results filed as inconclusive are left out. Active and inactive are the calls of the source. Calls come from the whole dose curve; as a rule, active = well fitted cell-killing curve with a large enough effect in the repeat runs; inconclusive = weak or mixed curves; inactive = flat fitted curve, though single readings scatter.
measurement-name: Potency

As a guide, the following entries are already answered.
>>> result("CN(C)c1ccc(SC#N)cc1")
"inactive"
>>> result("O=[N+]([O-])c1ccccc1Nc1ccccc1")
"inactive"
>>> result("CC(C)c1ccc2c(c1)CC[C@H]1[C@](C)(CN)CCC[C@]21C")
"34.7 µM (active)"
>>> result("CCCCCCCCCCCCCCCCCC[N+](C)(C)Cc1ccccc1")
"49.5 µM (active)"

Measured Potency, O=C1C=CC(=O)N1c1ccc(Cc2ccc(N3C(=O)C=CC3=O)cc2)cc1 : 12.3 µM (active)

So, CCC(N)(CO)CO ? Its Potency was inactive

###

system-tested: Peroxisome proliferator-activated receptor gamma (Homo sapiens)
method-summary: qHTS assay to identify small molecule agonists of the peroxisome proliferator-activated receptor gamma (PPARg) signaling pathway (AID 743094)
stated-conditions: HEK293H PPARg-UAS-bla, beta-lactamase FRET ratio, 17 h; series mostly up to 57 µM
Results filed as inconclusive are left out. Activity calls are given as the source filed them. Calls come from the whole dose curve; as a rule, active = well fitted activation curve with a large enough effect in the signal ratio in the repeat runs (not every such curve was filed as active); inconclusive = weak or mixed curves, or effect the other way; inactive = no such curve, though single readings can be large or run the other way; the % refers to the signal ratio.
Please state which outcome applies, choosing from active, inactive

These solved cases illustrate the format of a correct answer.
>>> label("O=c1[nH]cnc2nc[nH]c12")
"inactive"
>>> label("N=C1C=CC(=C(c2ccc(N)cc2)c2ccc(N)cc2)C=C1")
"inactive"
>>> label("CCCC(C)c1ccccc1O (stereo unspecified)")
"inactive"
>>> label("Cc1onc(-c2c(Cl)cccc2Cl)c1C(=O)N[C@@H]1C(=O)N2[C@@H]1SC(C)(C)[C@@H]2C(=O)O")
"inactive"
>>> label("N/C(=N\\N=C\\c1ccc(Cl)cc1)N/N=C/c1ccc(Cl)cc1")
"inactive"

Read the next record carefully.
Q: Answer briefly: the call reported for [O-][n+]1ccccc1SSc1cccc[n+]1[O-] in this assay.
Ans: active
